- System: primary human hepatic stellate cells (donor 1)
- Assay text: scaled lipid accumulation score (0 = DMSO-like, 1 = nortriptyline-like); higher = stronger HSC inactivation (lipid re-accumulation), active = hit call of the paper
- Condition set: library stock concentration: 10 mM; 48 h
Where a name gives a salt, the structure may show the parent alone. Screen size: about 5,800 compounds; about 620 (11%) showed activity. The sample as a whole holds a higher share of actives than the screen did.
Quick rule: scaled lipid accumulation score of at least 0.7 means MET, below that means NOT MET.

Compound	Measurement target	Label
CC[C@@H]1C(=O)N(C)c2cnc(Nc3ccc(C(=O)N[C@H]4CC[C@H](N5CCN(CC6CC6)CC5)CC4)cc3OC)nc2N1C(C)C	primary human hepatic stellate cells (donor 1)	MET
COc1cc(C(=O)NC2CCN(C)CC2)ccc1Nc1ncc2c(n1)N(C1CCCC1)CC(F)(F)C(=O)N2C	primary human hepatic stellate cells (donor 1)	MET
CC12CC3CC(C)(C1)CC(N)(C3)C2 [Memantine HCl]	primary human hepatic stellate cells (donor 1)	NOT MET
NC12CC3CC(CC(C3)C1)C2 [Symmetrel]	primary human hepatic stellate cells (donor 1)	NOT MET
CC12CC3CC(C)(C1)CC(N)(C3)C2	primary human hepatic stellate cells (donor 1)	MET
NC12CC3CC(CC(C3)C1)C2 [Amantadine HCl]	primary human hepatic stellate cells (donor 1)	NOT MET
COc1cc(C(=O)NC2CCN(C)CC2)ccc1Nc1ncc2c(n1)N(C1CCCC1)CCC(=O)N2C(C)C	primary human hepatic stellate cells (donor 1)	MET
COc1ccc(Nc2ncnc3ccc(OC)cc23)cc1 [MPMQ hydrochloride]	primary human hepatic stellate cells (donor 1)	NOT MET
CC12CC3CC(C)(C1)CC(N)(C3)C2.Cl [Memantine hydrochloride]	primary human hepatic stellate cells (donor 1)	MET

From: the supplement of paper PMC9135407
